IC50 tested on UniProt P43235: recorded values
Sequence (P43235 whole entry): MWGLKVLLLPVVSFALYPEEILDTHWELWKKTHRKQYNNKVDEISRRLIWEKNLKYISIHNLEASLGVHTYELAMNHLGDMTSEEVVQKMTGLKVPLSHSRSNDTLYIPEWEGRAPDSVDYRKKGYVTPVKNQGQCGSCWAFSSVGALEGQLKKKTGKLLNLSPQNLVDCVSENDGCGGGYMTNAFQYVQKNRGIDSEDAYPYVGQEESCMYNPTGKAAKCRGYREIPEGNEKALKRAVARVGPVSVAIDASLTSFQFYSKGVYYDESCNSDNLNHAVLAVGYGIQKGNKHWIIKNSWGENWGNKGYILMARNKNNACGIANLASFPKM
measurement.type: IC50 (nM)

COc1ccc(-c2cc(=O)c3c(O)cc(O)cc3o2)cc1-c1c(O)cc(O)c2c(=O)cc(-c3ccc(O)cc3)oc12 [BILOBETIN] : 1520
COc1ccc(-c2cc(=O)c3c(O)cc(O)c(-c4cc(-c5cc(=O)c6c(O)cc(O)cc6o5)ccc4O)c3o2)cc1 [PODOCARPUSFLAVONE A] : 2520
O=c1cc(-c2ccc(Oc3c(O)cc4oc(-c5ccc(O)cc5)cc(=O)c4c3O)cc2)oc2cc(O)cc(O)c12 [HINOKIFLAVONE] : 1540
COc1cc2c([nH]c3c4c(c(C)cc32)OC(C)(C)C=C4)c(-c2c(O)c(OC)cc3c2[nH]c2c4c(c(C)cc23)OC(C)(C)C=C4)c1O : 1910
O=c1cc(-c2ccc(O)c(-c3c(O)cc(O)c4c(=O)cc(-c5ccc(O)cc5)oc34)c2)oc2cc(O)cc(O)c12 [AMENTOFLAVONE] : 1880

---

# tested.system: Integrin alpha-V/beta-3 (Homo sapiens, UniProt P05106+P06756)
# Sequence (P05106 27-788 limits assumed): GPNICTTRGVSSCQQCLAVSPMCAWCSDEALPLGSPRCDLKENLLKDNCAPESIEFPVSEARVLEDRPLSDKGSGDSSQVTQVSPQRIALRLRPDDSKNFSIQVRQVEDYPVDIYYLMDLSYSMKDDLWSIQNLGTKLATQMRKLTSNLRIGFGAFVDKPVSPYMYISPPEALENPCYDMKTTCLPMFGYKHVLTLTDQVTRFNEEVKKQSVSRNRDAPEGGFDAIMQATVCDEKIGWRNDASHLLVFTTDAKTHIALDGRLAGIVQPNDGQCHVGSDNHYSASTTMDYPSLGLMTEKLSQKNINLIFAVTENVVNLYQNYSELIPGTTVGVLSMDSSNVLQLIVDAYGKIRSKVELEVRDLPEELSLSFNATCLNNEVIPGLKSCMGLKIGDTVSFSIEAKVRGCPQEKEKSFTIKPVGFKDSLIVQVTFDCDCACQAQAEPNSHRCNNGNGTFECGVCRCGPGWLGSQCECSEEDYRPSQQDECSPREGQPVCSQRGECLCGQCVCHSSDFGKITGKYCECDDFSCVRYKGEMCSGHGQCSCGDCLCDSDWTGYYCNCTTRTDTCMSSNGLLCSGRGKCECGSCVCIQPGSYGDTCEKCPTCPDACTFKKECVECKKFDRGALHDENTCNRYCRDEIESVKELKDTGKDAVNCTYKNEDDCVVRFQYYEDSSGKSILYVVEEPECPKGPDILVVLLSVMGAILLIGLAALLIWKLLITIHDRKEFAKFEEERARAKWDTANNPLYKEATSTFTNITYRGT
# Sequence (P06756 31-889 limits assumed): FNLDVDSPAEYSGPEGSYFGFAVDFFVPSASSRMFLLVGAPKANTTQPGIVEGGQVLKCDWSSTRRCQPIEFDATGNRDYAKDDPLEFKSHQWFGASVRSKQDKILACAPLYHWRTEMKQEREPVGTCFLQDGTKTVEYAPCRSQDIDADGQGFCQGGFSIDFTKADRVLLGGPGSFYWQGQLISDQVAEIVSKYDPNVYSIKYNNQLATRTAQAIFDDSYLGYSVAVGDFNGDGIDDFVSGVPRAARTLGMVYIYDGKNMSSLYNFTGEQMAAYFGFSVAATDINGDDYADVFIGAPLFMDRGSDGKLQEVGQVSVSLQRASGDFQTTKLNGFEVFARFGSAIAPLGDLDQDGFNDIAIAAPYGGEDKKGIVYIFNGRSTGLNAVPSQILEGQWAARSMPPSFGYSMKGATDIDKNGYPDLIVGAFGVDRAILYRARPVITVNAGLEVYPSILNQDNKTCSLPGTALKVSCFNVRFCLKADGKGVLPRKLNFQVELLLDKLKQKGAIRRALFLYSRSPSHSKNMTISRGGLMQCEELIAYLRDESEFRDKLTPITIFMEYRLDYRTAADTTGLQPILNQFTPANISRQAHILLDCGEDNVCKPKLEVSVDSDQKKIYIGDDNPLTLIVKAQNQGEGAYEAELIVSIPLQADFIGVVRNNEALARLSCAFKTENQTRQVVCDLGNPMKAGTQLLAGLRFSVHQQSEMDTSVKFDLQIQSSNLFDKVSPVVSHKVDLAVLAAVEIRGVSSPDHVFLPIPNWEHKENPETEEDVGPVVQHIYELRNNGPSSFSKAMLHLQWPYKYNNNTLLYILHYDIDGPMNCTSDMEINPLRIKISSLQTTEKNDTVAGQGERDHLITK
# Sequence (P06756 891-1048 limits assumed): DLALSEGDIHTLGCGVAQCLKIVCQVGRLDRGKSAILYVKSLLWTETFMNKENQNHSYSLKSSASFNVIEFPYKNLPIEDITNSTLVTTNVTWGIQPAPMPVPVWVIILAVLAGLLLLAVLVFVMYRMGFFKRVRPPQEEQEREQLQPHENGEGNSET
# method.notes: Inhibition of human alpha-v-beta-3 integrin receptor by ELISA
# Assay type: protein-complex assay
measurement.type: pIC50
Quick note: pIC50 means taking -log10 of the concentration in moles per liter.

The recorded pIC50 for O=C(O)/C=C/c1ccccc1O[C@@H]1O[C@H](CO)[C@@H](O)[C@H](O)[C@H]1O [MELILOTOSIDE] is 4.74

---

# tested.system: Matrix metalloproteinase-9 (Homo sapiens)
# Sequence (P14780 whole entry): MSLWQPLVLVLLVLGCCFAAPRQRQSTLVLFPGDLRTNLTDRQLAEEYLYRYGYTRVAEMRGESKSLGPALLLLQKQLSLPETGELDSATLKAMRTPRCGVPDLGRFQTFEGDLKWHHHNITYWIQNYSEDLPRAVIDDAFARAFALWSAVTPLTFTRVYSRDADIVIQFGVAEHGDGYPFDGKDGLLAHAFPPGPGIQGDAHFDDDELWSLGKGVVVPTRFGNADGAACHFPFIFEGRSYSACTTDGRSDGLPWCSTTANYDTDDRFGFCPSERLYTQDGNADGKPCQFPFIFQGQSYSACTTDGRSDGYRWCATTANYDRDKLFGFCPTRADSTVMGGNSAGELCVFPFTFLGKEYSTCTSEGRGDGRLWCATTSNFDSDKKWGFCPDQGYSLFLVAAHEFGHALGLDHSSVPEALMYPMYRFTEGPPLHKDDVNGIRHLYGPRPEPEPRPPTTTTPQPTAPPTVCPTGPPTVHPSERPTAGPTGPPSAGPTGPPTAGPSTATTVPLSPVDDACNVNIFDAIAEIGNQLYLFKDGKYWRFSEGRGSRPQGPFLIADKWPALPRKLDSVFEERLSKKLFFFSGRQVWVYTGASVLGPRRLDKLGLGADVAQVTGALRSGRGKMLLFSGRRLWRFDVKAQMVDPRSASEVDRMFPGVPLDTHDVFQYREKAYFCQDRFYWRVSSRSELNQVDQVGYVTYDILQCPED
measurement.type: pIC50
Quick note: pIC50 means taking -log10 of the concentration in moles per liter.

O=C(NO)[C@@H](Cc1ccccc1)NS(=O)(=O)c1ccc(-c2ccccc2)cc1 : 8.15
O=c1c2ccccc2nc2n1CCc1c-2[nH]c2ccccc12 : 4.56

Entry C[C@@H]1C[C@@H](O)[C@@]2(O)[C@@]13C[C@@H](OC(=O)[C@@H]3O)[C@](C)(O)[C@@]21COC1=O ; assay system Matrix metalloproteinase-9 (Homo sapiens); pIC50 recorded at 4.75

Data origin, for the record: ChEMBL document CHEMBL1146175
